- Test system: IGR37 cells (parental)
- protocolText: Kinase inhibitor library screening, PrestoBlue cell viability, 1 or 10 μM, 72 h
- conditionSet: IGR37 Parental; 1μΜ; 72 h; in %
parameter: cell viability, IGR37 Parental, 1μΜ

Use the examples below as a reference point.
>  <molecule>
CNC(=O)c1c(F)cccc1Nc1nc(Nc2cc3c(cc2OC)CCN3C(=O)CN(C)C)nc2[nH]ccc12 [GSK1838705A, reference compound]

>  <value>
92.2

$$$$
>  <molecule>
COc1cc2ncnc(Nc3cccc(Br)c3)c2cc1OC.Cl [PD153035 HCl]

>  <value>
115.8

$$$$
>  <molecule>
C[C@@H]1CCN(C(=O)CC#N)C[C@@H]1N(C)c1ncnc2[nH]ccc12

>  <value>
108.6

$$$$

Entry "O=c1cc(N2CCOCC2)oc2c(-c3cccc4c3sc3ccccc34)cccc12" , cell viability, IGR37 Parental, 1μΜ reported as 96.8

* * *

- Test system: IGR37-XP cells (Vemurafenib-resistant)
- protocolText: Kinase inhibitor library screening, PrestoBlue cell viability, 1 or 10 μM, 72 h
- conditionSet: Homo sapiens, IGR-37, 72 h, read-out: cell viability, IGR37 XP, 1μΜ
Counter-ions that a name gives are not always drawn.
So basically, if viability at 1 µM comes in under 70% it's Satisfied, and if it's 70% or more it's Not satisfied.

Here are 4 compounds together with their reported answers.
>  <compound>
O=C(NOC[C@H](O)CO)c1ccc(F)c(F)c1Nc1ccc(I)cc1F

>  <class>
Satisfied

$$$$
>  <compound>
CC(C)(O)CC(=O)NCCn1ccc2ncnc(Nc3ccc(Oc4cccc(C(F)(F)F)c4)c(Cl)c3)c21

>  <class>
Not satisfied

$$$$
>  <compound>
CCN1CCN(c2ccc(Nc3cc(N(C)C(=O)Nc4c(Cl)c(OC)cc(OC)c4Cl)ncn3)cc2)CC1

>  <class>
Not satisfied

$$$$
>  <compound>
O=C(NC[C@H](O)CO)c1ccncc1Nc1ccc(I)cc1F

>  <class>
Satisfied

$$$$

Say whether its viability at 1 µM is strictly beneath 70%. Entry: C#Cc1cccc(Nc2ncnc3cc(OCCOC)c(OCCOC)cc23)c1 [Erlotinib HCl]
Not satisfied

A record lists "C[C@]1(O)C[C@@H](c2nc(-c3ccc4ccc(-c5ccccc5)nc4c3)c3c(N)nccn32)C1" . Is its viability at 1 µM below 70%?
Satisfied

* * *

- Test system: A375-XP cells (Vemurafenib-resistant)
- protocolText: Dose-response curves and IC50, PrestoBlue cell viability, 72 h
- Assay type: cell-based, human
- conditionSet: Homo sapiens, n.e. = did not suppress growth below 50% in the tested concentration range, read-out: Half-maximal inhibitory concentration value (IC50), Mean
parameter: pIC50
Quick note: pIC50 means taking -log10 of the concentration in moles per liter.

>  <molecule>
CC[C@@H]1C(=O)N(C)c2cnc(Nc3ccc(C(=O)N[C@H]4CC[C@H](N5CCN(CC6CC6)CC5)CC4)cc3OC)nc2N1C(C)C

>  <value>
7.68

$$$$
>  <molecule>
CNC(=O)c1cc(Oc2ccc(NC(=O)Nc3ccc(Cl)c(C(F)(F)F)c3)cc2)ccn1

>  <value>
5.34

$$$$
>  <molecule>
CCS(=O)(=O)c1cccc(-c2cc(C(=O)NC3CCN(C)CC3)c(C)c3[nH]c4ncc(C)cc4c23)c1 [TAK-901, reference compound]

>  <value>
6.33

$$$$
>  <molecule>
O=C(Nc1cc(C(F)(F)F)cc(C(F)(F)F)c1)c1cc(Cl)ccc1O [IMD 0354, reference compound]

>  <value>
6.00

$$$$

For "NC(=O)Nc1cc(-c2cccc(F)c2)sc1C(=O)N[C@H]1CCCNC1" the molecule record lists pIC50 as 6.44

Form field pIC50, entry C=CCn1c(=O)c2cnc(Nc3ccc(N4CCN(C)CC4)cc3)nc2n1-c1cccc(C(C)(C)O)n1 [MK-1775, reference compound] : 6.09

Reported pIC50 for "CC(=O)c1c(C)c2cnc(Nc3ccc(N4CCNCC4)cn3)nc2n(C2CCCC2)c1=O" was 5.30

Consider "CC(=O)Nc1cccc(-n2c(=O)n(C3CC3)c(=O)c3c(Nc4ccc(I)cc4F)n(C)c(=O)c(C)c32)c1" . Its measured pIC50 is 8.62

pIC50 reading for "COc1cc(OC)c(/C=C/S(=O)(=O)Cc2ccc(OC)c(NCC(=O)O)c2)c(OC)c1" : 7.23

Lab book: pIC50 of CC(C)CC(=O)Nc1[nH]nc2c1CN(C(=O)C1CCN(C)CC1)C2(C)C [PHA-793887, reference compound] noted as 5.98

The measured pIC50 associated with "CO[C@@H](C(=O)N1Cc2n[nH]c(NC(=O)c3ccc(N4CCN(C)CC4)cc3)c2C1)c1ccccc1" reads 6.53

* * *

Measured Cell viability in kinase inhibitor library screening, IGR37 Parental, 1μΜ values are reported for all entries that follow.
- System: IGR37 cells (parental)
- protocolText: Kinase inhibitor library screening, PrestoBlue cell viability, 1 or 10 μM, 72 h
- conditionSet: IGR37 Parental; 1μΜ; 72 h; in %
Give your answer as a number; write no unit.

Observe how each entry below is paired with its result.
>  <molecule>
CCCS(=O)(=O)Nc1ccc(F)c(C(=O)c2c[nH]c3ncc(Cl)cc23)c1F

>  <assayTarget>
IGR37 cells (parental)

>  <value>
44.1

$$$$
>  <molecule>
CC[C@@H]1C(=O)N(C)c2cnc(Nc3ccc(C(=O)N[C@H]4CC[C@H](N5CCN(CC6CC6)CC5)CC4)cc3OC)nc2N1C(C)C

>  <assayTarget>
IGR37 cells (parental)

>  <value>
36.2

$$$$
>  <molecule>
COc1ccc(COc2cc3oc(=O)c4cc(C(C)O)ccc4c3cc2OC)cc1 (stereo not drawn)

>  <assayTarget>
IGR37 cells (parental)

>  <value>
102.9

$$$$

The molecule identified as "CC1(COc2ccc3c(c2)ncn3-c2ccc3cccc(N4CCC(N)CC4)c3n2)COC1" registered its Cell viability in kinase inhibitor library screening, IGR37 Parental, 1μΜ at 103.4

Cell viability in kinase inhibitor library screening, IGR37 Parental, 1μΜ reading for "Nc1nc(N)c2nc(-c3cccc(O)c3)c(-c3cccc(O)c3)nc2n1" : 97.1

Recorded Cell viability in kinase inhibitor library screening, IGR37 Parental, 1μΜ (molecule "O=C1NC(=O)/C(=C/c2ccc3nccc(-c4ccncc4)c3c2)S1" ): 82.5

* * *

- Test system: 501Mel cells (parental)
- protocolText: Kinase inhibitor library screening, PrestoBlue cell viability, 1 or 10 μM, 72 h
- conditionSet: Homo sapiens, 72 h, read-out: cell viability, 501Mel Parental, 1μΜ
Counter-ions that a name gives are not always drawn.
parameter: viability at 1 µM (%)
Field format: number, assumed %, no unit text.

>  <molecule>
C#Cc1cccc(Nc2ncnc3cc(OCCOC)c(OCCOC)cc23)c1 [Erlotinib HCl]

>  <viability at 1 µM / %>
97.2

$$$$
>  <molecule>
C[C@H](NC(=O)/C(C#N)=C/c1cccc(Br)n1)c1ccccc1 [WP1066]

>  <viability at 1 µM / %>
96.9

$$$$
>  <molecule>
C=CC(=O)Nc1cccc(Oc2nc(Nc3ccc(N4CCN(C)CC4)cc3OC)ncc2Cl)c1 [WZ4002]

>  <viability at 1 µM / %>
107

$$$$
>  <molecule>
O=C(c1ccc(/C=C/c2n[nH]c3ccccc23)cc1)N1CCNCC1 [KW 2449]

>  <viability at 1 µM / %>
97.3

$$$$
>  <molecule>
COCC(=O)NC/C=C/c1ccc2ncnc(Nc3ccc(Oc4ccc(C)nc4)c(C)c3)c2c1 [CP-724714]

>  <viability at 1 µM / %>
105

$$$$
>  <molecule>
CC(C)(C)c1cc(NC(=O)Nc2ccc(-c3cn4c(n3)sc3cc(OCCN5CCOCC5)ccc34)cc2)no1 [Quizartinib (AC220)]

>  <viability at 1 µM / %>
95.1

$$$$

501Mel cells (parental) data for CCN1CCN(c2ccc(Nc3cc(N(C)C(=O)Nc4c(Cl)c(OC)cc(OC)c4Cl)ncn3)cc2)CC1 [BGJ398 (NVP-BGJ398)] ; its viability at 1 µM: 96.6

// viability at 1 µM (501Mel cells (parental)) for C=CC(=O)Nc1ccc2ncnc(Nc3ccc(OCc4cccc(F)c4)c(Cl)c3)c2c1 [AST-1306] = 94.1

* * *

- Test system: IGR37-GP cells (Dabrafenib-resistant)
- protocolText: Kinase inhibitor library screening, PrestoBlue cell viability, 1 or 10 μM, 72 h
- conditionSet: IGR37 GP; 1μΜ; 72 h; in %
Lab note: cut-off is 90. Strictly less in Cell viability in kinase inhibitor library screening, IGR37 GP, 1μΜ is class 1. Exactly 90 or more is class 0.

>  <molecule>
CCn1c(=O)c(-c2cc[nH]n2)cc2c(C)nc(N)nc21 [XL765]

>  <assayTarget>
IGR37-GP cells (Dabrafenib-resistant)

>  <class>
class 0

$$$$
>  <molecule>
CC1(COc2ccc3c(c2)ncn3-c2ccc3cccc(N4CCC(N)CC4)c3n2)COC1 [Crenolanib (CP-868596)]

>  <assayTarget>
IGR37-GP cells (Dabrafenib-resistant)

>  <class>
class 0

$$$$
>  <molecule>
COC[C@H]1OC(=O)c2coc3c2[C@@]1(C)C1=C(C3=O)[C@@H]2CCC(=O)[C@@]2(C)C[C@H]1OC(C)=O [Wortmannin]

>  <assayTarget>
IGR37-GP cells (Dabrafenib-resistant)

>  <class>
class 0

$$$$
>  <molecule>
O=C(O)c1ccc2c(c1)nc(Nc1cccc(Cl)c1)c1ccncc12 [cx-4945 (Silmitasertib)]

>  <assayTarget>
IGR37-GP cells (Dabrafenib-resistant)

>  <class>
class 0

$$$$
>  <molecule>
COC(=O)Nc1ccc(-c2nc(N3CCOCC3)c3cnn(C4CCN(C(=O)OC)CC4)c3n2)cc1 [WYE-354]

>  <assayTarget>
IGR37-GP cells (Dabrafenib-resistant)

>  <class>
class 1

$$$$

Strictly below 90: is that where Cell viability in kinase inhibitor library screening, IGR37 GP, 1μΜ of CN1CCN(c2nc(C3=C(c4c[nH]c5ccccc45)C(=O)NC3=O)c3ccccc3n2)CC1 [Sotrastaurin (AEB071)] sits?
class 0

Input Nc1cc(C(F)(F)F)c(-c2cc(N3CCOCC3)nc(N3CCOCC3)n2)cn1 [BKM120 (Buparlisib)] ; condition: Cell viability in kinase inhibitor library screening, IGR37 GP, 1μΜ strictly below 90. Does it hold?
class 1

Cell viability in kinase inhibitor library screening, IGR37 GP, 1μΜ strictly < 90 for this molecule? CC[C@@H]1C(=O)N(C)c2cnc(Nc3ccc(C(=O)NC4CCN(C)CC4)cc3OC)nc2N1C1CCCC1 [BI 2536]
class 1

Could you please tell me whether Cell viability in kinase inhibitor library screening, IGR37 GP, 1μΜ recorded for COc1ncc(-c2ccc3nccc(-c4ccnnc4)c3c2)cc1NS(=O)(=O)c1ccc(F)cc1F [GSK2126458] is less than 90?
class 1

Quick check: Cell viability in kinase inhibitor library screening, IGR37 GP, 1μΜ of CCn1nnc2c(N3CCOCC3)nc(-c3ccc(NC(=O)Nc4ccc(C(=O)N5CCN(C)CC5)cc4)cc3)nc21 [PKI-402] under 90?
class 1
